# melting point per entry

Example entries begin here.
| compound | melting point |
| --- | --- |
| O=C(O)CCC(CSc1nc2ccccc2s1)C(=O)O (stereo not drawn) | 152 to 154 °C |
| O=c1c(Cc2ccccc2)cn2c3ccc(Cl)cc3c3cc(Cl)cc1c32 | 206 to 209 °C |
| O=Cc1cn(C(c2ccccc2)(c2ccccc2)c2ccccc2)c(F)n1 | 177 to 179 °C |
| Cc1c(OCC(F)(F)F)ccnc1CS(=O)c1nc2ccccc2n1NCC(C)C (stereo not drawn) | 129 to 131 °C |
| O=C(Nc1ccc(Cl)c(C(F)(F)F)c1)N1NC(c2ccccc2)C(c2ccccc2)C1=O (stereo not drawn) | 72 to 74 °C |

compound Cc1ccccc1Cn1c(=O)on(C(=O)N(c2ccc(Cl)cc2)C(C)C)c1=O , melting point observed: 90 to 91 °C

compound CS(=O)(=O)c1ccc(-n2nc(CNC(=O)Nc3ccc(OC(F)(F)F)cc3)cc2-c2ccccc2)cc1 , melting point observed: 153 to 156 °C

compound Cc1ccccc1-n1c(-c2sc(NC(=O)c3ccccc3)nc2-c2ccccc2)nc2ccccc2c1=O , melting point observed: > 275 °C

compound Cc1cc(C=C2SC(=O)NC2=O)ccc1-c1cccc(CN(C)C(=O)OC(C)(C)C)c1 , melting point observed: 156 °C

compound Fc1ccccc1C1=NCC(=S)Nc2ccc(I)cc21 , melting point observed: 242 to 244 °C

compound CSC(C(=O)c1cc(-c2ccccc2)on1)N(C)C (stereo not drawn) , melting point observed: 98 to 99.5 °C

compound C=CC(=O)c1ccc(OCC(=O)O)c(Cl)c1Cl , melting point observed: 111 to 113 °C

compound O=C(Nc1cccc2c1C(=O)c1c-2n[nH]c1-c1ccc(C(=O)NN2CCCC2)s1)NN1CCOCC1 , melting point observed: 213 to 215 °C

====

endpoint label: melting point (°C)
Just the number please, in °C, no unit attached.

| compound | melting point, °C |
| --- | --- |
| O=Cn1cc(Cl)c(-c2cccc(Cl)c2[N+](=O)[O-])c1 | 138 |
| Cc1nc(C)c(Cl)c(NCc2nccc(SCCCSCC3CN(C)C(=O)O3)c2C)n1 (stereo not given) | 121 |

compound Cc1cc(Oc2ccc(S(C)(=O)=O)c(S(F)(F)(F)(F)F)c2)c(S(C)(=O)=O)cc1C(=O)NC(=N)N , melting point observed: 275

====

# melting point per entry

| compound | melting point |
| --- | --- |
| CC1=NN(c2ccc(Cl)cc2)C(=O)C1C(=O)Nc1ccc(F)cc1 (stereo unspecified) | 109 to 113 °C |
| CC(C)[Si](O[C@@H](CO)[C@H](CC1CCCCC1)NC(=O)OC(C)(C)C)(C(C)C)C(C)C | 61 to 63 °C |
| O=c1cc(C(F)(F)F)nc(Cl)n1-c1cc(Oc2ccccc2[N+](=O)[O-])c(Cl)cc1F | 128 to 131 °C |
| CC(C)(SCc1cc2cc(C(F)(F)F)ccc2n1S(=O)(=O)c1ccccc1)C(=O)O | 90 °C |
| CCOC(=O)c1cnn(Cc2ccccc2)c1-c1ccccc1 | 78 to 79 °C |

Here's the next entry for you.
compound N#CN=C(Cc1ccc2c(c1)Nc1nccnc1S2)NCCCC(=O)O , melting point observed: 217 to 218 °C

====

# melting point per entry

Example entries begin here.
| molecule | melting point |
| --- | --- |
| O=C(c1cccs1)c1cnn2c(-c3cccc(NC(=O)C4CCCC4)c3)ccnc12 | 209 to 210 °C |
| CC(=O)NC1C(C)(C)c2ccc(CCN3CCN(c4nsc5ccccc45)CC3)cc2C1(C)C (stereo not drawn) | 75 to 80 °C |

Here's the next entry for you.
molecule CCCCCS(=O)(=O)NC(=O)/C=C/c1cc(C(C)C)nn1Cc1ccc(Cl)cc1Cl , melting point observed: 149 to 151 °C

====

# melting point per entry

| compound | endpoint label | result |
| --- | --- | --- |
| Cc1cccc(NC(=O)NC2CN(CC(=O)N3CC4CCC(CC4)C3)c3c(C)cccc3C(c3ccccc3F)=N2)c1 (centres undefined) | melting point | 246 to 247 °C |
| CC(Cc1ccc(F)c(F)c1)C(=O)O (centres undefined) | melting point | 55 to 56 °C |
| CCCCOc1ccc(C(=O)Nc2ccc3cc(CN4CCCC4C)cnc3c2C)cc1 (centres undefined) | melting point | 153 to 156 °C |
| CCCCc1nc(SCC)c(CO)[nH]1 | melting point | 128 °C |
| Cc1cc(C)nc(COc2ccc3c(c2)c(SC(C)(C)C)c(CC(C)(C)C(=O)O)n3Cc2ccc(Cl)cc2)n1 | melting point | 213 to 215 °C |

Here's the next entry for you.
compound CCCCCCCCCCCCCCOC(=O)OC1CC(C)(C)N(C)C(C)(C)C1 , melting point observed: 32 to 34 °C

====

endpoint label: melting point

compound CCOC(=O)CNC(=O)c1cc(Cl)ccc1N , melting point observed: 108 to 110 °C

====

# melting point per entry
Just the number please, in °C, no unit attached.

| structure as smiles | unit descriptor | melting point |
| --- | --- | --- |
| O=S1(=O)c2cccc3cccc(c23)N1CCN1CC=C(c2c[nH]c3ccccc23)CC1 | °C | 208 |

Here's the next entry for you.
compound CC(C)(C)c1cc(CCc2ccccc2NC(=O)NCc2ccco2)cc(C(C)(C)C)c1O , melting point observed: 170

====

# melting point per entry

Example entries begin here.
| molecule | melting point |
| --- | --- |
| Cc1nnc(-c2cc3cccc(OC[C@@H](O)CN4CCC(c5ccc6ccccc6c5)CC4)c3o2)o1 | 140 to 142 °C |
| COc1c(Nc2ncc(Cl)c(N[C@@H]3CCCC[C@H]3NS(C)(=O)=O)n2)ccc2c1CCCC(NCCO)C2 (some centres undefined) | 92 to 94 °C |
| O=C1CCC(N2Cc3c(OCc4ccc(CN5CCN(c6ncccn6)CC5)cc4)cccc3C2=O)C(=O)N1 (centres undefined) | 142 to 144 °C |
| FC(F)(F)Sc1c(-c2ccc(Cl)cc2)[nH]c(Br)c1Br | 107 to 113 °C |
| O=C(O)c1cccn2c(=O)c3c(nc12)CCC3 | 189 to 193 °C |
| O=C(NCCCn1ccnc1)c1ccoc1 | 127 to 129 °C |

molecule N#CNC(=S)Nc1ccc(Cl)cc1 , melting point observed: > 250 °C

molecule COC(=O)C1(C(=O)O)CCc2cc(C3CCCCCC3)ccc21 (centres undefined) , melting point observed: 140 to 141 °C

molecule CCOC(=O)CCCOc1ccccc1O , melting point observed: 37.2 to 38.4 °C

====

# melting point per entry

Example entries begin here.
| compound | melting point |
| --- | --- |
| Cc1ccc(-c2ccn(C(C)C(=O)N(C)C)n2)cc1 (stereo not given) | 79 to 82 °C |
| Cc1cc2c(cc1OCCn1ccnc1)CCCC2=O | 118 to 120 °C |
| C/C(=C(\C#N)C(=S)/N=C/N(C)C)N1CCCN(c2ccc(C(F)(F)F)cc2)CC1 | 251 to 253 °C |
| COc1ccc(C2(O)OC(=O)C(c3ccc4nsnc4c3)=C2Cc2ccccc2)cc1 (stereo not given) | 40 to 41 °C |
| O=c1oc2ccccc2c2c1CNCC2 | 125 to 128 °C |
| CC(C)(C)C(O)c1ccc(C(=O)O)cc1 (stereo not given) | 162 to 163 °C |
| CCCCCCCCCCNC(=O)N(O)CCCC(=O)OCC | 68 to 69 °C |
| NC(=O)N(O)Cc1ccc(OCc2coc(-c3ccc(C(F)(F)F)cc3)n2)cc1 | 128 to 130 °C |
| CC1N=C(c2ccccn2)c2cc(Br)ccc2NC1=O (stereo not given) | 227 to 229 °C |
| COc1ccc2c(c1)OC(C(=O)O)Oc1ccccc1C2 (stereo not given) | 149 to 153 °C |

compound N#Cc1c(N)oc2ccc(Cl)cc2c1=O , melting point observed: 340 °C

compound O=C(NC1CN2CCC1CC2)c1cccc2c1CCC2 (racemic) , melting point observed: 158 °C

compound COc1ccc2c3c(c(=O)oc2c1)CN(Cc1ccccc1Cl)CC3 , melting point observed: 137 to 139 °C

compound CCc1nc(NC(=O)c2cnn3c(C(F)F)cc(-c4ccc(C(F)(F)F)cc4)nc23)sc1S(=O)(=O)N1CCC(O)C1 (racemic) , melting point observed: 286 °C

compound CCn1c(COCc2ccc(OC)cc2)nc(C(C)C)c1Sc1cc(Cl)cc(Cl)c1 , melting point observed: 120 to 121 °C

====

# melting point per entry

compound CSc1cc(-c2ccc(C(F)(F)F)cc2)nc(-c2cccc(C(F)(F)F)c2)c1 , melting point observed: 98.5 °C

compound CN(C(=O)OC(C)(C)C)C1CC=C(c2c[nH]c3cc([N+](=O)[O-])ccc23)CC1 (centres undefined) , melting point observed: 208 to 210 °C

src = a melting point compilation (Tetko et al.; mined from patent text by program, amines drawn as free bases though some values may be those of a salt)
